Reference source: PubChem BioAssay AID463173

# Test system: DeltatarO mutant
# procedure_summary: S. aureus survival, RN4220 and DeltatarO strains – OD600, teichoic acid synthesis inhibitors, primary screen (AID 463173)
# condition_details: S. aureus RN4220 wild type/DeltatarO growth, OD600, 18 h, screened at 18.75 µg/mL (by protocol)
Among all 52,000 compounds or so, about 4,300 (8.3%) were called active. Cut-off read from the data, not from the text of the source: active = survival mostly below about 52% (no sharp cut-off); inactive = mostly above about 56%. Shown is part of a subset that was picked to be rich in actives.
Possible outcomes: active, inactive

structure_string | group
CCOC(=O)c1cnc2c(ccc3ccccc32)c1Nc1cccc(OC)c1 | active
O=C(Nc1cccc(Cl)c1)N1CCSc2ccccc21 | inactive
c1ccc(-n2nc3ccc4nonc4c3n2)cc1 | inactive
CCOC(=O)c1cnc2c(ccc3ccccc32)c1Nc1ccc(N(C)C)cc1 | active
COc1cccc(C(=O)c2sc(Nc3ccc(F)c(Cl)c3)nc2N)c1 | inactive
CCOC(=O)c1cnc(SC)nc1Nc1ccccc1 | inactive

* * *

List of survival values.
# Tested on: DeltatarO mutant
# procedure_summary: S. aureus survival, RN4220 and DeltatarO strains – OD600, teichoic acid synthesis inhibitors, primary screen (AID 463173)
# condition_details: S. aureus RN4220 wild type/DeltatarO growth, OD600, 18 h, stronger effect = lower value, screened at 18.75 µg/mL (by protocol)
About 4,300 (8.3%) of roughly 52,000 compounds were called active. Many of the other results were omitted from the sample, so actives are more common in it than they were.
endpoint_label: survival (%)

compound | study_system | endpoint_label | value_measured
Cc1ccccc1CNC(=O)C(=O)NCC(c1ccco1)S(=O)(=O)c1cccs1 (stereo not given) | DeltatarO mutant | survival | 70
Cc1ccc(CNC(=O)C(=O)NCC(c2ccco2)S(=O)(=O)c2cccs2)cc1 (stereo not given) | DeltatarO mutant | survival | 101
Cc1ccc(Cl)cc1N1CCN(C(=O)C(C)n2ncn3cccc3c2=O)CC1 (stereo not given) | DeltatarO mutant | survival | 66
O=C(NCc1ccccc1)C(=O)NCC(c1ccco1)S(=O)(=O)c1cccs1 (stereo not given) | DeltatarO mutant | survival | 96
O=C(NCc1ccccc1Cl)C(=O)NCC(c1ccco1)S(=O)(=O)c1cccs1 (stereo not given) | DeltatarO mutant | survival | 55
Cc1onc(-c2c(F)cccc2Cl)c1C(=O)Nc1ccc(OC(C)C)cc1 | DeltatarO mutant | survival | 62
CC(=O)c1ccc(N2CCN(C(=O)C3CCN(S(=O)(=O)c4cccc5nonc45)CC3)CC2)cc1 | DeltatarO mutant | survival | 79
Cc1ccccc1CNC(=O)C(=O)NCC(c1ccco1)S(=O)(=O)c1ccccc1 (stereo not given) | DeltatarO mutant | survival | 92
O=C(NCCc1ccccc1)C(=O)NCC(c1ccco1)S(=O)(=O)c1cccs1 (stereo not given) | DeltatarO mutant | survival | 94
CCCCOC(=O)c1ccc(NC2=NS(=O)(=O)c3ccccc32)cc1 | DeltatarO mutant | survival | 66
Cc1c(C)n(Cc2ccccc2)c2ccc(C(=O)N3CCN(c4ccccc4F)CC3)cc12 | DeltatarO mutant | survival | 80
O=C(NCc1ccccc1)C(=O)NCC(c1ccco1)S(=O)(=O)c1ccccc1 (stereo not given) | DeltatarO mutant | survival | 76
O=C(NCc1ccc(F)cc1)C(=O)NCC(c1ccco1)S(=O)(=O)c1cccs1 (stereo not given) | DeltatarO mutant | survival | 8
CCOc1ccc(N(CC)C(=O)c2nn(-c3ccc(OC)cc3)c(=O)c3c2c2ccccc2n3C)cc1 | DeltatarO mutant | survival | 82
CCc1ccc(N(CC)C(=O)c2ccc3c(=O)n4c(nc3c2)CCCCC4)cc1 | DeltatarO mutant | survival | 86
O=C(NCCc1ccc(F)cc1)C(=O)NCC(c1ccco1)S(=O)(=O)c1cccs1 (stereo not given) | DeltatarO mutant | survival | 66
Cc1ccc(S(N)(=O)=O)cc1NC(=O)c1c(-c2c(Cl)cccc2Cl)noc1C | DeltatarO mutant | survival | 55
CCCCN(C)C(=O)C1CCCN(c2ncnc3onc(C)c23)C1 (stereo not given) | DeltatarO mutant | survival | 113
O=C(NCc1ccccc1F)C(=O)NCC(c1ccco1)S(=O)(=O)c1cccs1 (stereo not given) | DeltatarO mutant | survival | 25
CC(=O)N1CCc2c(sc3nc(SCC(N)=O)n(-c4ccc(F)c(Cl)c4)c(=O)c23)C1 | DeltatarO mutant | survival | 75

* * *

# System: DeltatarO mutant
# procedure_summary: S. aureus survival, RN4220 and DeltatarO strains – OD600, teichoic acid synthesis inhibitors, primary screen (AID 463173)
# condition_details: S. aureus RN4220 wild type/DeltatarO growth, OD600, 18 h, stronger effect = lower value, screened at 18.75 µg/mL (by protocol)
Among all 52,000 compounds or so, about 4,300 (8.3%) were called active. What follows is part of a selection rich in actives, with near analogues and random picks from the rest.
endpoint_label: survival (%)

compound | reading_unit | value_measured
CC(=O)N1c2ccc(S(=O)(=O)N3CCCCCC3)cc2CC1C(=O)NCc1cccc(F)c1 (stereo not given) | % | 65
CCCCNC(=O)CCn1c(=O)c2cccn2c2cccnc21 | % | 103
COCCN(C(=O)C1CC1)c1nnc(-c2cccc(C)c2)s1 | % | 98
COc1ccc(C)cc1NC(=O)c1cn(C)c(=O)c2cc(OC)c(OC)cc12 | % | 72
Cc1cccc(CNC(=O)CCn2c(=O)c3cccn3c3ccc(F)cc32)c1 | % | 92
Cn1ccc2cc(S(=O)(=O)N3CCCN(C(=O)Nc4ccccc4Br)CC3)ccc21 | % | 67
CN(C)c1ccc(CNC(=O)CCn2c(=O)c3cccn3c3ccc(F)cc32)cc1 | % | 57
Cc1ccc(S(=O)(=O)c2nnn3c2nc(NCc2ccc4c(c2)OCO4)c2sccc23)cc1 | % | 113
CCCCNC(=O)CCn1c(=O)c2cccn2c2ccc(F)cc21 | % | 41
Cc1ccc(CCNC(=O)CCn2c(=O)c3cccn3c3ccc(F)cc32)cc1 | % | 39

* * *

# Tested on: DeltatarO mutant
# procedure_summary: S. aureus survival, RN4220 and DeltatarO strains – OD600, teichoic acid synthesis inhibitors, primary screen (AID 463173)
# condition_details: S. aureus RN4220 wild type/DeltatarO growth, OD600, 18 h, stronger effect = lower value, screened at 18.75 µg/mL (by protocol)
Screen size: about 52,000 compounds; about 4,300 (8.3%) were called active. Only a selection was taken, and actives are over-represented in it overall.
Reported survival values are given for each entry in this list.

compound | reading_unit | survival
CCc1ccc(S(=O)(=O)NCCc2csc3nc(-c4ccccc4)nn23)s1 | % | 109
O=C(CC(c1ccccc1)c1ccccc1)N1CCN(Cc2ccc3c(c2)OCO3)CC1 | % | 67
O=C1CN(C(=O)C2CCCCC2)C(c2ccccc2)c2cc(F)ccc2N1 (stereo not given) | % | 70
COc1ccc(-c2nc3scc(CCNS(=O)(=O)c4cccs4)n3n2)cc1 | % | 6
CS(=O)(=O)NCCc1csc2nc(-c3ccccc3)nn12 | % | -2
CCCCC1CCC(C(=O)N2CC(=O)Nc3ccc(Br)cc3C2c2ccc(F)cc2)CC1 (stereo not given) | % | 55
CCCCC1CCC(C(=O)N2CC(=O)Nc3ccc(F)cc3C2c2ccc(F)cc2)CC1 (stereo not given) | % | 38
COc1ccc(OC)c(S(=O)(=O)NCCc2csc3nc(-c4ccccc4)nn23)c1 | % | -1
Cc1nn(-c2ccccc2)c2sc(C(=O)NN=C3CCCC3)cc12 | % | 109
CCCCC1CCC(C(=O)N2CC(=O)Nc3ccc(Cl)cc3C2c2ccc(F)cc2)CC1 (stereo not given) | % | 40

* * *

# System: DeltatarO mutant
# procedure_summary: S. aureus survival, RN4220 and DeltatarO strains – OD600, teichoic acid synthesis inhibitors, primary screen (AID 463173)
# condition_details: S. aureus RN4220 wild type/DeltatarO growth, OD600, 18 h, screened at 18.75 µg/mL (by protocol)
Hit rate of the full screen: of about 52,000 compounds, about 4,300 (8.3%) were called active. No stated cut-off is given here; in the data, active means survival mostly below about 52% (no sharp cut-off); inactive means mostly above about 56%. The full list was thinned out, with actives kept by preference.
Outcome codes: true (1) = active, false (0) = inactive

molecule | group
CCOC(=O)c1cccc(Nc2cc(C)nc(C)n2)c1 | false (0)
CCCn1c(CCCNC(=O)c2ccccc2OC)nc2ccccc21 | false (0)
Cc1ccccc1C(=O)Nc1ccccc1C(=O)OCc1cc(=O)n2ccsc2n1 | false (0)
COc1ccccc1C(=O)Nc1ccccc1C(=O)OCc1cc(=O)n2ccsc2n1 | true (1)
COc1ccccc1C(=O)Nc1ccc(C(=O)OCc2cc(=O)n3ccsc3n2)cc1 | false (0)
COCCNc1nc2c(S(=O)(=O)c3ccc(C)c(C)c3)nnn2c2ccc(Cl)cc12 | false (0)
CCc1ccc(NC(=O)c2sc3nc(C)cc(C)c3c2NC(=O)c2ccccc2OC)cc1 | false (0)
O=C(Nc1ccccc1C(=O)OCc1cc(=O)n2ccsc2n1)c1ccccc1Cl | false (0)
COc1ccccc1OCCn1c(NC(=O)c2ccc(Cl)cc2)nc2ccccc21 | true (1)
CN(C)c1ccc(NC(=O)CN2CCN(CC(=O)Nc3ccc(Br)cc3)CC2)cc1 | false (0)
CCOC(=O)c1c(C)oc2ncnc(Nc3cccc(C(F)(F)F)c3)c12 | false (0)
COc1cc(C(=O)OCc2cc(=O)n3ccsc3n2)cc(OC)c1OC | true (1)
CCn1c(NC(C)=O)nc2ccccc21 | false (0)
CC(NC(=O)c1ccccc1)c1nc2ccccc2n1Cc1ccc(Cl)cc1 (configuration not stated) | false (0)
CCOC(=O)c1c(Nc2cccc(C)c2)nnc(-c2ccccc2)c1-c1ccccc1 | true (1)
COc1ccccc1OCCn1c(NC(=O)c2ccccc2Cl)nc2ccccc21 | true (1)
NC1CCC(c2ccccc2)CC1 (configuration not stated) | false (0)
Cc1ccc(-c2nnc(Nc3cccc(O)c3)c3ccccc23)cc1S(=O)(=O)NCC1CCCO1 (configuration not stated) | false (0)
O=C(O)c1ccc(NCc2nc3ccccc3n2CCOc2ccccc2Cl)cc1 | false (0)
CCOc1ccc(C(=O)Nc2ccc3nc(SCc4ccccc4)sc3c2)cc1 | false (0)
Cc1cccc(C(=O)OCc2cc(=O)n3ccsc3n2)c1 | false (0)
COc1cc(C)ccc1OCCn1c(-c2ccc(Cl)cc2)nc2ccccc2c1=O | false (0)
